Values were extracted from ChEMBL document CHEMBL1158158.

Give Vd for every item shown.
Experiment: Volume of distribution at steady state in Sprague-Dawley rat at 2 mg/kg, iv
Format: ADME, organism-based
Design: dose 2 mg/kg, route intravenous
Conditions: in vivo, read-out: Vdss
The figure you give is taken to be in L/kg; do not add the unit.

For `Cc1ccc(C(=O)NCCC2CCCC2)cc1C(=O)Nc1ccc(N)nc1` , what is its reported Vd?
5.36

State the recorded Vd for this entry: `Cc1ccc(NC(=O)c2cccc(C(F)(F)F)c2)cc1C(=O)Nc1cncnc1`
1.39

For the molecule shown here, `CC(=O)Nc1ccc(NC(=O)c2cc(C(=O)Nc3cccc(C(F)(F)F)c3)ccc2C)cn1` , give the reported Vd.
1.38

Fill blank: measured Vd of the molecule `Cc1ccc(C(=O)Nc2cccc(C(F)(F)F)c2)cc1C(=O)Nc1cncnc1` is ____.
1.54

Report Vd for `Cc1ccc(C(=O)Nc2cccc(C(F)(F)F)c2)cc1C(=O)Nc1ccc(N)nc1` please.
1.35
